Parameter reversion colonies, TA102: see the listing below.
test system: S. typhimurium TA102; test: Bacterial mutagenicity, plate incorporation assay, TA102; details: 80 μg/plate; mean ± SD; square brackets: toxicity becoming apparent
# print the numeric value only

As a guide, the following entries are already answered.
- compound: "CN1CCN(c2ccc3nc(-c4ccc5nc(CCCCCCc6ccc(N(CCCl)CCCl)cc6)[nH]c5c4)[nH]c3c2)CC1 [Compound 6]"
  reversion colonies, TA102: 336
- compound: "CN1CCN(c2ccc3nc(-c4ccc5nc(CCCc6ccc(N(CCCl)CCCl)cc6)[nH]c5c4)[nH]c3c2)CC1 [Compound 5]"
  reversion colonies, TA102: 480
- compound: "CN1CCN(c2ccc3nc(-c4ccc5nc(-c6ccc(O)cc6)[nH]c5c4)[nH]c3c2)CC1 [Pibenzimol, reference compound]"
  reversion colonies, TA102: 397

Query :: Field request: reversion colonies, TA102 | item: CN1CCN(c2ccc3nc(-c4ccc5nc(CCc6ccc(N(CCCl)CCCl)cc6)[nH]c5c4)[nH]c3c2)CC1 [Compound 4]
Result :: 609

###

system: S. typhimurium TA100; assay: Bacterial mutagenicity, plate incorporation assay, TA100; conditions: 40 μg/plate; mean ± SD
Cut-off 200 on reversion colonies, TA100, inclusive. At or above means Met; below means Not met.

- compound: "CN1CCN(c2ccc3nc(-c4ccc5nc(CCCc6ccc(N(CCCl)CCCl)cc6)[nH]c5c4)[nH]c3c2)CC1"
  system name: "S. typhimurium TA100"
  group: "Met"

Here is the next item to consider.
Query :: For this compound, is measured reversion colonies, TA100 200 or higher? CN1CCN(c2ccc3nc(-c4ccc5nc(Cc6ccc(N(CCCl)CCCl)cc6)[nH]c5c4)[nH]c3c2)CC1
Result :: Not met

###

test system: S. typhimurium TA100; test: Bacterial mutagenicity, plate incorporation assay, TA100; conditions: 4 μg/plate; mean ± SD
Parameter reversion colonies, TA100: see the listing below.

- compound: "CN1CCN(c2ccc3nc(-c4ccc5nc(CCc6ccc(N(CCCl)CCCl)cc6)[nH]c5c4)[nH]c3c2)CC1"
  reversion colonies, TA100: "172 ± 4"
- compound: "CN1CCN(c2ccc3nc(-c4ccc5nc(-c6ccc(O)cc6)[nH]c5c4)[nH]c3c2)CC1 [Pibenzimol, reference compound]"
  reversion colonies, TA100: "188 ± 11"
- compound: "CN1CCN(c2ccc3nc(-c4ccc5nc(Cc6ccc(N(CCCl)CCCl)cc6)[nH]c5c4)[nH]c3c2)CC1"
  reversion colonies, TA100: "154 ± 8"
- compound: "CN1CCN(c2ccc3nc(-c4ccc5nc(-c6ccc(N(C)CCCl)cc6)[nH]c5c4)[nH]c3c2)CC1"
  reversion colonies, TA100: "196 ± 23"
- compound: "CN1CCN(c2ccc3nc(-c4ccc5nc(-c6ccc(N(CCCl)CCCl)cc6)[nH]c5c4)[nH]c3c2)CC1"
  reversion colonies, TA100: "173 ± 7"

Query :: What reported reversion colonies, TA100 corresponds to CN1CCN(c2ccc3nc(-c4ccc5nc(CCCCCCc6ccc(N(CCCl)CCCl)cc6)[nH]c5c4)[nH]c3c2)CC1 on S. typhimurium TA100?
Result :: 160 ± 13

Query :: Cool, now CN1CCN(c2ccc3nc(-c4ccc5nc(CCCc6ccc(N(CCCl)CCCl)cc6)[nH]c5c4)[nH]c3c2)CC1
Result :: 188 ± 15

###

test system: AA8 and UV4 cells; test: Hypersensitivity factor (AA8/UV4 IC50 ratio); type: cell-based, Chinese hamster; conditions: ratio of IC50s AA8/UV4
metric: Hypersensitivity factor
# print the numeric value only

As a guide, the following entries are already answered.
- compound string: "CN1CCN(c2ccc3nc(-c4ccc5nc(-c6ccc(N(CCCl)CCCl)cc6)[nH]c5c4)[nH]c3c2)CC1"
  Hypersensitivity factor: 24
- compound string: "CN1CCN(c2ccc3nc(-c4ccc5nc(CCCCCCc6ccc(N(CCCl)CCCl)cc6)[nH]c5c4)[nH]c3c2)CC1"
  Hypersensitivity factor: 20
- compound string: "CN1CCN(c2ccc3nc(-c4ccc5nc(Cc6ccc(N(CCCl)CCCl)cc6)[nH]c5c4)[nH]c3c2)CC1"
  Hypersensitivity factor: 59

Query :: Field request: Hypersensitivity factor | item: CN1CCN(c2ccc3nc(-c4ccc5nc(CCc6ccc(N(CCCl)CCCl)cc6)[nH]c5c4)[nH]c3c2)CC1
Result :: 47

Query :: Cool, now CN1CCN(c2ccc3nc(-c4ccc5nc(-c6ccc(N(C)CCCl)cc6)[nH]c5c4)[nH]c3c2)CC1
Result :: 14

Query :: Cool, now CN1CCN(c2ccc3nc(-c4ccc5nc(CCCc6ccc(N(CCCl)CCCl)cc6)[nH]c5c4)[nH]c3c2)CC1
Result :: 46

###

system: calf thymus DNA; assay: Rate of alkylation of calf thymus DNA by increase in DNA-bound fluorescence; assay type: biochemical; set-up: unit not given here
metric: Rate constant for alkylation

- compound string: "CN1CCN(c2ccc3nc(-c4ccc5nc(Cc6ccc(N(CCCl)CCCl)cc6)[nH]c5c4)[nH]c3c2)CC1"
  Rate constant for alkylation: "3.01 × 10^4"
- compound string: "CN1CCN(c2ccc3nc(-c4ccc5nc(CCCc6ccc(N(CCCl)CCCl)cc6)[nH]c5c4)[nH]c3c2)CC1"
  Rate constant for alkylation: "6.52 × 10^4"
- compound string: "CN1CCN(c2ccc3nc(-c4ccc5nc(-c6ccc(N(CCCl)CCCl)cc6)[nH]c5c4)[nH]c3c2)CC1"
  Rate constant for alkylation: "1.78 × 10^4"

Query :: Field request: Rate constant for alkylation | item: CN1CCN(c2ccc3nc(-c4ccc5nc(CCc6ccc(N(CCCl)CCCl)cc6)[nH]c5c4)[nH]c3c2)CC1
Result :: 4.62 × 10^4

Query :: Cool, now CN1CCN(c2ccc3nc(-c4ccc5nc(CCCCCCc6ccc(N(CCCl)CCCl)cc6)[nH]c5c4)[nH]c3c2)CC1
Result :: 9.64 × 10^4

###

system: S. typhimurium TA102; assay: Bacterial mutagenicity, plate incorporation assay, TA102; conditions: 10 μg/plate; mean ± SD
metric: reversion colonies, TA102
# print the numeric value only

Query :: Field request: reversion colonies, TA102 | item: CN1CCN(c2ccc3nc(-c4ccc5nc(CCCCCCc6ccc(N(CCCl)CCCl)cc6)[nH]c5c4)[nH]c3c2)CC1
Result :: 386

Query :: Cool, now CN1CCN(c2ccc3nc(-c4ccc5nc(-c6ccc(N(C)CCCl)cc6)[nH]c5c4)[nH]c3c2)CC1
Result :: 417

Query :: Cool, now CN1CCN(c2ccc3nc(-c4ccc5nc(CCCc6ccc(N(CCCl)CCCl)cc6)[nH]c5c4)[nH]c3c2)CC1
Result :: 392

Query :: Cool, now CN1CCN(c2ccc3nc(-c4ccc5nc(CCc6ccc(N(CCCl)CCCl)cc6)[nH]c5c4)[nH]c3c2)CC1
Result :: 366

Query :: Cool, now CN1CCN(c2ccc3nc(-c4ccc5nc(-c6ccc(N(CCCl)CCCl)cc6)[nH]c5c4)[nH]c3c2)CC1
Result :: 371

Query :: Cool, now CN1CCN(c2ccc3nc(-c4ccc5nc(Cc6ccc(N(CCCl)CCCl)cc6)[nH]c5c4)[nH]c3c2)CC1
Result :: 237

Query :: Cool, now CN1CCN(c2ccc3nc(-c4ccc5nc(-c6ccc(O)cc6)[nH]c5c4)[nH]c3c2)CC1 [Pibenzimol, reference compound]
Result :: 277

###

test system: S. typhimurium TA98; assay: Bacterial mutagenicity, plate incorporation assay, TA98; settings: 20 μg/plate; mean ± SD
Cut-off 70 on reversion colonies, TA98, inclusive. At or above means class 1; below means class 0.

- compound: "CN1CCN(c2ccc3nc(-c4ccc5nc(-c6ccc(N(C)CCCl)cc6)[nH]c5c4)[nH]c3c2)CC1"
  group: "class 0"
- compound: "CN1CCN(c2ccc3nc(-c4ccc5nc(CCc6ccc(N(CCCl)CCCl)cc6)[nH]c5c4)[nH]c3c2)CC1"
  group: "class 1"
- compound: "CN1CCN(c2ccc3nc(-c4ccc5nc(-c6ccc(N(CCCl)CCCl)cc6)[nH]c5c4)[nH]c3c2)CC1"
  group: "class 0"
- compound: "CN1CCN(c2ccc3nc(-c4ccc5nc(-c6ccc(O)cc6)[nH]c5c4)[nH]c3c2)CC1 [Pibenzimol, reference compound]"
  group: "class 0"

Here is the next item to consider.
Query :: For this compound, is measured reversion colonies, TA98 70 or higher? CN1CCN(c2ccc3nc(-c4ccc5nc(Cc6ccc(N(CCCl)CCCl)cc6)[nH]c5c4)[nH]c3c2)CC1
Result :: class 1

###

tested on: P338 murine leukaemia; type: in vivo, mice; details: single i.p. dose
metric: Optimal dose
Quick note: unit goes after the number.

As a guide, the following entries are already answered.
- compound string: "CN1CCN(c2ccc3nc(-c4ccc5nc(-c6ccc(N(C)CCCl)cc6)[nH]c5c4)[nH]c3c2)CC1"
  Optimal dose: "30 mg/kg"
- compound string: "CN1CCN(c2ccc3nc(-c4ccc5nc(Cc6ccc(N(CCCl)CCCl)cc6)[nH]c5c4)[nH]c3c2)CC1"
  Optimal dose: "13.3 mg/kg"
- compound string: "CN1CCN(c2ccc3nc(-c4ccc5nc(CCCCCCc6ccc(N(CCCl)CCCl)cc6)[nH]c5c4)[nH]c3c2)CC1"
  Optimal dose: "8.9 mg/kg"
- compound string: "CN1CCN(c2ccc3nc(-c4ccc5nc(-c6ccc(N(CCCl)CCCl)cc6)[nH]c5c4)[nH]c3c2)CC1"
  Optimal dose: "30 mg/kg"
- compound string: "CN1CCN(c2ccc3nc(-c4ccc5nc(CCCc6ccc(N(CCCl)CCCl)cc6)[nH]c5c4)[nH]c3c2)CC1"
  Optimal dose: "5.9 mg/kg"

Query :: Field request: Optimal dose | item: CN1CCN(c2ccc3nc(-c4ccc5nc(CCc6ccc(N(CCCl)CCCl)cc6)[nH]c5c4)[nH]c3c2)CC1
Result :: 3.9 mg/kg
